Taken from the antibiotic and cytotoxicity screens of Wong et al. (2023).

# Tested on: HepG2
# ASSAY EXPLANATION: cytotoxicity call (relative viability < 0.9)
# ASSAY SETUP: 10 µM
The campaign covered roughly 39,000 compounds. About 3,300 (8.5%) were called active. What follows is part of a selection rich in actives, with near analogues and random picks from the rest.
Thanks in advance; please answer with one of these: Y = active, N = inactive

INSERT INTO measurements (structure_smiles_string, class_name) VALUES
  ('COc1ccc(CN(C)C[C@@H]2OCCCC[C@@H](C)Oc3ccc(NC(=O)Nc4ccc5c(c4)OCO5)cc3C(=O)N([C@@H](C)CO)C[C@H]2C)cc1', 'Y'),
  ('COc1ccc(CN(C)C[C@H]2OCCCC[C@@H](C)Oc3ccc(NC(=O)Nc4ccc5c(c4)OCO5)cc3C(=O)N([C@H](C)CO)C[C@H]2C)cc1', 'Y'),
  ('NNCCc1ccccc1', 'N'),
  ('COc1ccc(-c2nc(-c3ccc(C)cc3C)cs2)cc1', 'N'),
  ('COc1ccc(CN(C)C[C@@H]2OCCCC[C@H](C)Oc3ccc(NC(=O)Nc4ccc5c(c4)OCO5)cc3C(=O)N([C@@H](C)CO)C[C@@H]2C)cc1', 'N');

# outcome recorded in this test, key = NCCNc1cccc2ccccc12
N

# outcome recorded in this test, key = CN1CCN(C(=O)C[C@@H]2CC[C@@H]3[C@H](COC[C@@H](O)CN3C(=O)Nc3cc(Cl)cc(Cl)c3)O2)CC1
N

# outcome recorded in this test, key = COc1ccc(CN(C)C[C@H]2OCCCC[C@@H](C)Oc3ccc(NC(=O)Nc4ccc5c(c4)OCO5)cc3C(=O)N([C@H](C)CO)C[C@@H]2C)cc1
N

----------
# System: HepG2
# ASSAY EXPLANATION: cytotoxicity call (relative viability < 0.9)
# ASSAY SETUP: 10 µM
The whole screen tested about 39,000 compounds, of which about 3,300 (8.5%) were called active. The sample holds actives, similar compounds and a random draw of the others, so the mix is not that of the screen.
READOUT: cytotoxicity call

INSERT INTO measurements (structure_smiles_string, readout, result) VALUES
  ('C[C@@H]1CN([C@@H](C)CO)C(=O)Cc2cc(NC(=O)Cn3cnnn3)ccc2O[C@@H]1CN(C)C(=O)Nc1ccc2c(c1)OCO2', 'cytotoxicity call', 'inactive'),
  ('COc1ccc(NC(=O)N(C)C[C@@H]2OCCCC[C@@H](C)Oc3ccc(NS(=O)(=O)c4cccs4)cc3C(=O)N([C@@H](C)CO)C[C@H]2C)cc1', 'cytotoxicity call', 'inactive');

----------
# Tested on: HepG2
# ASSAY EXPLANATION: cytotoxicity call (relative viability < 0.9)
# ASSAY SETUP: 10 µM
The campaign covered roughly 39,000 compounds. About 3,300 (8.5%) were called active. The sample as a whole holds a higher share of actives than the screen did.
Thanks in advance; please answer with one of these: yes (active), no (inactive)

Please review the following examples before continuing.
INSERT INTO results (structure_smiles_string, class_name) VALUES
  ('C[C@@H]1CN([C@@H](C)CO)C(=O)Cc2cc(NC(=O)c3ccncc3)ccc2O[C@H]1CN(C)Cc1ccc(Oc2ccccc2)cc1', 'yes'),
  ('C[C@@H]1CN([C@@H](C)CO)C(=O)c2ccccc2-c2ccccc2CO[C@@H]1CN(C)Cc1cccc(C(F)(F)F)c1', 'no');

# outcome recorded in this test, key = C[C@@H]1CN([C@H](C)CO)C(=O)Cc2cc(NC(=O)c3ccncc3)ccc2O[C@@H]1CN(C)Cc1ccc2c(c1)OCO2
no

# outcome recorded in this test, key = Cc1cc(C(=O)Nc2cccc3c2O[C@@H](CN(C)C(=O)NC(C)C)[C@H](C)CN([C@H](C)CO)C3=O)n(C)n1
no

# outcome recorded in this test, key = CN(C)C(=O)c1ccc(-c2ccc3n(c2=O)C[C@@H]2[C@@H](CO)[C@H](C(=O)NCCc4ccccc4)N[C@H]32)cc1
no

# outcome recorded in this test, key = C[C@@H]1CCCCO[C@H](CN(C)C(=O)Nc2ccc(C(F)(F)F)cc2)[C@H](C)CN([C@@H](C)CO)C(=O)c2cc(NC(=O)Nc3cccc4ccccc34)ccc2O1
no

# outcome recorded in this test, key = C[C@H](CO)N1C[C@H](C)[C@@H](CN(C)S(C)(=O)=O)Oc2c(NC(=O)NC3CCCCC3)cccc2C1=O
no

# outcome recorded in this test, key = O=C(C[C@H]1C=C[C@H](NC(=O)Cc2ccccn2)[C@@H](CO)O1)NCCCN1CCOCC1
no

# outcome recorded in this test, key = Cc1ccccc1S(=O)(=O)N1C[C@H](O)COC[C@@H]2O[C@@H](CC(=O)NCCc3ccccc3)CC[C@H]21
no

# outcome recorded in this test, key = Cc1noc(C)c1S(=O)(=O)Nc1ccc2c(c1)C(=O)N([C@H](C)CO)C[C@H](C)[C@@H](CN(C)S(C)(=O)=O)OCCCC[C@@H](C)O2
no

# outcome recorded in this test, key = C[C@H]1CN([C@@H](C)CO)C(=O)c2cc(C#CCN(C)C)cnc2O[C@@H]1CN(C)S(=O)(=O)c1cn(C)cn1
no

# outcome recorded in this test, key = C[C@@H]1CN([C@H](C)CO)C(=O)Cc2cc(NC(=O)c3ccncc3)ccc2O[C@@H]1CN(C)Cc1ccc(Oc2ccccc2)cc1
no

# outcome recorded in this test, key = COCC(=O)Nc1ccc2c(c1)OC[C@H](C)N(C(=O)Cc1ccccn1)C[C@H](C)[C@H](OC)CN(C)C2=O
no

# outcome recorded in this test, key = C[C@H]1CN([C@@H](C)CO)C(=O)Cc2cc(NC(=O)c3ccncc3)ccc2O[C@@H]1CN(C)Cc1ccc(Oc2ccccc2)cc1
no

# outcome recorded in this test, key = COCC(=O)Nc1ccc2c(c1)C(=O)N(C)[C@H]1CC[C@@H](CC(=O)NC3Cc4ccccc4C3)O[C@@H]1CO2
no
